Entries and their Δ^13C(‰) value at 15 min after the administration
# Test system: pancreatic exocrine function
# assayExplanation: 13C-dipeptide breath test in normal rats (Δ13C in exhaled CO2 after oral administration)
# Type: in vivo, rat
# settings: normal rats, oral 35 μmol/kg, 15 min, mean±SD

Consider the worked cases shown below.
If you can, please state the reported Δ^13C(‰) value at 15 min after the administration value of CSCC[C@H](NC(=O)c1ccccc1)C(=O)N[C@@H](C)[13C](=O)[O-].[Na+] [Na salt of Bz-Met-(^13C-Ala), N-benzoyl-L-methionyl-^13C-L-alanine] .
45.53±8.00 ‰

Can you handle C[C@H](NC(=O)[C@H](Cc1ccccc1)NC(=O)c1ccccc1)[13C](=O)[O-].[Na+] [Na salt of Bz-Phe-(^13C-Ala), N-benzoyl-L-phenylalanyl-^13C-L-alanine] next?
45.44±3.44 ‰

***
If you can, please state the reported Δ^13C(‰) value at 15 min after the administration value of C[C@H](NC(=O)[C@@H](NC(=O)c1ccccc1)[C@@H](C)O)[13C](=O)[O-].[Na+] [Na salt of Bz-Thr-(^13C-Ala), N-benzoyl-L-threonyl-^13C-L-alanine] .
47.11±5.67 ‰

Can you handle C[C@H](NC(=O)[C@H](Cc1ccc(O)cc1)NC(=O)c1ccccc1)[13C](=O)[O-].[Na+] [Na salt of Bz-Tyr-(^13C-Ala), N-benzoyl-L-tyrosyl-^13C-L-alanine] next?
52.64±11.32 ‰

Can you handle CC(C)[C@H](NC(=O)c1ccccc1)C(=O)N[C@@H](C)[13C](=O)[O-].[Na+] [Na salt of Bz-Val-(^13C-Ala), N-benzoyl-L-valyl-^13C-L-alanine] next?
52.89±11.18 ‰

Can you handle C[C@H](NC(=O)[C@H](CCC(N)=O)NC(=O)c1ccccc1)[13C](=O)[O-].[Na+] [Na salt of Bz-Gln-(^13C-Ala), N-benzoyl-L-glutaminyl-^13C-L-alanine] next?
51.27±3.21 ‰

Can you handle C[C@H](NC(=O)[C@H](CO)NC(=O)c1ccccc1)[13C](=O)[O-].[Na+] [Na salt of Bz-Ser-(^13C-Ala), N-benzoyl-L-seryl-^13C-L-alanine] next?
47.48±12.89 ‰

The values you see were collected from patent US7662857B2.
